Target: Homeobox protein Meis1 (Homo sapiens) (UniProt O00470)
Experiment: Inhibition of MEIS1 (unknown origin) expressed in HEK293T cells co-expressing MEIS-Luc-pGL2 assessed as luciferase activity at 10 uM incubated for 48 hrs by luciferase reporter assay related to protein content
Assay type: cell-based
Design: scale not given: the % may be the effect or the level left
Could you mark each record rule met if its Activity falls strictly under 60%, and rule not met if it equals or exceeds it?

Look over these answered cases.
[[record]]
smiles_entry = "COc1ccc(NC(=O)c2ccc(OCC(=O)NCc3ccc(Cl)cc3)cc2)cc1OC"
group_label = "rule met"

[[record]]
smiles_entry = "COc1ccc(CNC(=O)COc2ccc(C(=O)Nc3cc(C(F)(F)F)ccc3F)cc2)cc1"
group_label = "rule met"

[[record]]
smiles_entry = "COc1ccc(CNC(=O)COc2ccc(C(=O)Nc3ccc(Oc4ccc(Br)cc4)cc3)cc2)cc1"
group_label = "rule met"

[[record]]
smiles_entry = "Cc1cccc(NC(=O)c2ccc(OCC(=O)NCc3ccccc3)cc2)c1C"
group_label = "rule not met"

[[record]]
smiles_entry = "CCc1cccc(NC(=O)c2ccc(OCC(=O)NCc3ccc(OC)cc3)cc2)c1"
group_label = "rule met"


Does the reported Activity of `COc1ccc(CNC(=O)COc2ccc(C(=O)Nc3cccc(C(F)(F)F)c3)cc2)cc1` stay below 60%? rule met

And what about the compound `COc1ccc(NC(=O)c2ccc(OCC(=O)NCc3ccccc3Cl)cc2)cc1OC` ? rule not met

Okay, and `COc1ccc(CNC(=O)COc2ccc(C(=O)Nc3ccc(F)cc3)cc2)cc1` ? rule met

One more compound: `O=C(COc1ccc(C(=O)Nc2ccc(Oc3ccc(Br)cc3)cc2)cc1)NCc1ccccc1Cl` rule not met

Same question, `Cc1cccc(NC(=O)c2ccc(OCC(=O)NCc3ccc(Cl)c(Cl)c3)cc2)c1C` this time rule met

* * *

Target: Homeobox protein Meis1 (Homo sapiens) (UniProt O00470)
Sequence (whole entry): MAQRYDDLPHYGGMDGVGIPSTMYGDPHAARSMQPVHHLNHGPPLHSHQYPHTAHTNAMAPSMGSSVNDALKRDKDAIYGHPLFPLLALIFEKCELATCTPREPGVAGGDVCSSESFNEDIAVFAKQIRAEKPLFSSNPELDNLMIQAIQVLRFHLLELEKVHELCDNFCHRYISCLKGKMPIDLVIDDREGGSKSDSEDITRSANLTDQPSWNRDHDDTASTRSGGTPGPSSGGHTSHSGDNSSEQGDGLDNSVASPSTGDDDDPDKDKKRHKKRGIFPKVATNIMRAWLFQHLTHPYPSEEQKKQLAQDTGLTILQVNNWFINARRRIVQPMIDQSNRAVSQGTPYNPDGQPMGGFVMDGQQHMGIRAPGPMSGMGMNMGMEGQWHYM
Experiment: Inhibition of MEIS1 (unknown origin) expressed in HEK293T cells co-expressing MEIS-Luc-pGL2 assessed as luciferase activity at 10 uM incubated for 48 hrs by luciferase reporter assay related to protein content
Format: cell-based
Parameters: scale not given: the % may be the effect or the level left
Classify as follows. Reported Activity greater than or equal to 60%: Yes. Reported Activity below: No.

A selection of reference data follows.
[[record]]
smiles_entry = "O=C(COc1ccc(C(=O)Nc2ccc(Oc3ccc(Br)cc3)cc2)cc1)NCc1ccc(Cl)cc1"
group_label = "Yes"

[[record]]
smiles_entry = "COc1ccc(CNC(=O)COc2ccc(C(=O)Nc3ccccc3F)cc2)cc1"
group_label = "Yes"

[[record]]
smiles_entry = "Cc1cccc(NC(=O)c2ccc(OCC(=O)NCc3cccc(C(F)(F)F)c3)cc2)c1C"
group_label = "No"

[[record]]
smiles_entry = "O=C(COc1ccc(C(=O)Nc2ccccc2F)cc1)NCc1ccccc1Cl"
group_label = "Yes"

[[record]]
smiles_entry = "COc1ccc(CNC(=O)COc2ccc(C(=O)Nc3ccc(OC)c(OC)c3)cc2)cc1"
group_label = "Yes"


Hi team, for `COc1ccc(CNC(=O)COc2ccc(C(=O)Nc3c(C)cccc3C)cc2)cc1` , is the recorded Activity at or above 60%? No

Similarly, `O=C(COc1ccc(C(=O)Nc2ccccc2F)cc1)NCc1ccc(Cl)cc1` ? Yes

Please do the same for `CCc1cccc(NC(=O)c2ccc(OCC(=O)NCc3ccccc3Cl)cc2)c1` as well. No

Also need `Cc1cccc(NC(=O)c2ccc(OCC(=O)NCc3cccc(Cl)c3Cl)cc2)c1C` , thanks. No

Try this compound next: `O=C(COc1ccc(C(=O)Nc2cccc(Cl)c2)cc1)NCc1ccc(Cl)cc1` No
